target: mPGES-1 in A549 cells (Homo sapiens (Human)); assay: A549 cell-based assay (PGE2 formation, 50% human serum); conditions: mPGES-1 inhibitory effect IC50 in the cell assay, IL-1β 5 ng/ml, 10 nM arachidonic acid, 20-24 h
pIC50: −log10 of the molar value.
measuredParameter: pIC50

For the compound shown here, `CC(C)(C)C(=O)NCc1ccc(Cl)c(Nc2nc3cc(C(=O)N[C@H]4CC[C@H](C(F)(F)F)CC4)c(N4CCOCC4)cc3n2CC(F)F)c1Cl` , give the reported pIC50.
> 9.00

###

target: recombinant human mPGES-1 (Homo sapiens (Human)); test: mPGES-1 enzyme assay (HTRF detection of PGE2); assay type: biochemical; conditions: recombinant human mPGES-1 microsomes, PGH2 2 μM, 60 seconds; read-out: mPGES-1 inhibitory effect IC50 in the enzyme assay
measuredParameter: IC50 (nM)
One number for each entry, in nM.

>  <compound>
Cn1c(Nc2c(Cl)ccc(CNC(=O)C(C)(C)CO)c2Cl)nc2cc(C(=O)NCCC(F)(F)F)c(N3CCC(C(F)(F)F)CC3)cc21

>  <testTarget>
recombinant human mPGES-1 (Homo sapiens (Human))

>  <IC50 [nM]>
4

$$$$
>  <compound>
CC(C)C(NC(=O)c1cc2nc(Nc3c(Cl)ccc(CNC(=O)C(C)(C)C)c3Cl)n(C)c2cc1N1CCC(F)(F)C1)C(F)(F)F (stereo not drawn)

>  <testTarget>
recombinant human mPGES-1 (Homo sapiens (Human))

>  <IC50 [nM]>
4

$$$$
>  <compound>
Cn1c(Nc2c(Cl)ccc(CNC(=O)C(C)(C)C)c2Cl)nc2cc(C(=O)Nc3cccc(OC(F)(F)F)c3)c(N3CCC(F)(F)C3)cc21

>  <testTarget>
recombinant human mPGES-1 (Homo sapiens (Human))

>  <IC50 [nM]>
2

$$$$

Batch lookup, IC50 per entry.
1. Cn1c(Nc2c(Cl)ccc(CNC(=O)C(C)(C)C)c2Cl)nc2cc(C(=O)N[C@H]3CC[C@H](C(F)(F)F)CC3)c(N3CC4CCC3C4)cc21 (stereo partly drawn)
2. Cn1c(Nc2c(Cl)ccc(CNC(=O)c3c(O)cccc3F)c2Cl)nc2cc(C(=O)NCCC(F)(F)F)c(N3CCC(C(F)(F)F)CC3)cc21
3. Cn1c(Nc2c(Cl)ccc(CNC(=O)C(C)(C)C)c2Cl)nc2cc(C(=O)Nc3ccc(F)c(Cl)c3)c(N3CCC(F)CC3)cc21
4. Cn1c(Nc2c(Cl)ccc(CNC(=O)C(C)(C)C)c2Cl)nc2cc(C(=O)Nc3ccc(OC(F)(F)F)cc3)c(N3CC4CC4C3)cc21 (stereo not drawn)
5. Cn1c(Nc2c(Cl)ccc(CNC(=O)C(C)(C)C)c2Cl)nc2cc(C(=O)N[C@H]3CC[C@H](C(F)(F)F)CC3)c(N3CC(OC(F)F)C3)cc21

[2, 2, 2, 3, 1]

###

molecular target: recombinant human mPGES-1 (Homo sapiens (Human), UniProt O14684); assay: mPGES-1 enzyme assay (HTRF detection of PGE2); format: biochemical; conditions: recombinant human mPGES-1 microsomes, PGH2 2 μM, 60 seconds; read-out: mPGES-1 inhibitory effect IC50 in the enzyme assay
measuredParameter: pIC50
Answers are plain numbers, as −log10 of the molar value.

Example entries and their recorded answers appear below.
>  <compound>
Cn1c(Nc2c(Cl)ccc(CNC(=O)C(C)(C)C)c2Cl)nc2cc(C(=O)N[C@H]3CC[C@H](C(F)(F)F)CC3)c(N3CC[C@@H](F)C3)cc21

>  <pIC50>
8.52

$$$$
>  <compound>
Cn1c(Nc2c(Cl)ccc(CNC(=O)C(C)(C)F)c2Cl)nc2cc(C(=O)Nc3ccc(OC(F)(F)F)cc3)c(N3CC[C@@H](F)C3)cc21

>  <pIC50>
8.46

$$$$
>  <compound>
Cn1c(Nc2c(Cl)ccc(CNC(=O)[C@@](C)(O)C(F)(F)F)c2Cl)nc2cc(C(=O)Nc3ccc(F)c(Cl)c3)c(N3CC[C@@H](F)C3)cc21

>  <pIC50>
8.52

$$$$
>  <compound>
Cn1c(Nc2c(Cl)ccc(CNC(=O)C(C)(C)C)c2Cl)nc2cc(C(=O)N[C@H]3CC[C@H](C(F)(F)F)CC3)c(N3CCC(C(F)(F)F)C3)cc21 (stereo partly drawn)

>  <pIC50>
8.52

$$$$
>  <compound>
CN(c1cc2c(cc1C(=O)NCCC(F)(F)F)nc(Nc1c(Cl)ccc(CNC(=O)C(C)(C)F)c1Cl)n2C)C1CCC1

>  <pIC50>
8.52

$$$$

// moving on: another record for pIC50
For the compound shown here, Cn1c(Nc2c(Cl)ccc(CNC(=O)C(C)(C)C)c2Cl)nc2cc(C(=O)Nc3ccc(Cl)c(F)c3)c(N3CC4CC4C3)cc21 (stereo not drawn) , give the reported pIC50.
8.52

###

molecular target: mPGES-1 in A549 cells (Homo sapiens (Human), UniProt O14684); assay: A549 cell-based assay (PGE2 formation, 50% human serum); settings: Table C comparison of selected benzimidazoles, read-out: Cell IC50
Sequence (O14684 whole entry): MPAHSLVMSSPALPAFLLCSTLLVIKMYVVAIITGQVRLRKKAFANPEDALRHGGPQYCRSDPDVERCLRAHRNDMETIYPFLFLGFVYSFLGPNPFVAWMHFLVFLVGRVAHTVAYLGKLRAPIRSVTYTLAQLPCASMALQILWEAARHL
Would you mind telling me the reported IC50 of each entry?
Numbers only, in nM.

Example entries and their recorded answers appear below.
>  <compound>
Cn1c(Nc2c(Cl)ccc(CNC(=O)C(C)(C)C)c2Cl)nc2cc(C(=O)NCC3CC3)c(N3CCC(F)(F)C3)cc21

>  <testTarget>
mPGES-1 in A549 cells (Homo sapiens (Human), UniProt O14684)

>  <IC50 (nM)>
7

$$$$
>  <compound>
Cn1c(Nc2c(Cl)ccc(CNC(=O)C(C)(C)C)c2Cl)nc2cc(C(=O)Nc3ccc(F)c(Cl)c3)c(NCC(F)F)cc21

>  <testTarget>
mPGES-1 in A549 cells (Homo sapiens (Human), UniProt O14684)

>  <IC50 (nM)>
6

$$$$
>  <compound>
Cn1c(Nc2c(Cl)ccc(CNC(=O)C(C)(C)C)c2Cl)nc2cc(C(=O)N[C@H]3CC[C@H](C(F)(F)F)CC3)c(N3CCC(F)(F)C3)cc21

>  <testTarget>
mPGES-1 in A549 cells (Homo sapiens (Human), UniProt O14684)

>  <IC50 (nM)>
1

$$$$

// moving on: another record for IC50
Provide value of IC50 for this record tested with mPGES-1 in A549 cells (Homo sapiens (Human), UniProt O14684): Cn1c(Nc2cc(CNC(=O)C(C)(C)C)ccc2Cl)nc2cc(C(=O)Nc3ccc(Br)cc3)c(OCC(F)F)cc21 [[drawing 48] of WO 2010/100249, reference compound]
10

###

target: recombinant human mPGES-1 (Homo sapiens (Human)); experiment: mPGES-1 enzyme assay (HTRF detection of PGE2); assay type: biochemical; conditions: recombinant human mPGES-1 microsomes, PGH2 2 μM, 60 seconds; read-out: mPGES-1 inhibitory effect IC50 in the enzyme assay
measuredParameter: IC50 (nM)
Give bare numbers, in nM.

Example entries and their recorded answers appear below.
>  <molecule>
Cn1c(Nc2c(Cl)ccc(CNC(=O)C(C)(C)C)c2Cl)nc2cc(C(=O)Nc3ccc(F)c(Cl)c3)c(N3CC4CC4C3)cc21 (stereo not drawn)

>  <testTarget>
recombinant human mPGES-1 (Homo sapiens (Human))

>  <IC50 [nM]>
1

$$$$
>  <molecule>
Cn1c(Nc2c(Cl)ccc(CNC(=O)C(C)(C)C)c2Cl)nc2cc(C(=O)NCC(F)(F)F)c(N3CCc4ccc(Cl)cc4C3)cc21

>  <testTarget>
recombinant human mPGES-1 (Homo sapiens (Human))

>  <IC50 [nM]>
2

$$$$

// moving on: another record for IC50
For the molecule shown here, CC(NC(=O)c1cc2nc(Nc3c(Cl)ccc(CNC(=O)C(C)(C)C)c3Cl)n(C)c2cc1N1CCC(F)(F)C1)C(F)(F)F (stereo not drawn) , give the reported IC50.
1

###

biological target: recombinant human mPGES-1 (Homo sapiens (Human), UniProt O14684); assay: mPGES-1 enzyme assay (HTRF detection of PGE2); format: biochemical; details: recombinant human mPGES-1 microsomes, PGH2 2 μM, 60 seconds; read-out: mPGES-1 inhibitory effect IC50 in the enzyme assay
Would you mind telling me the reported pIC50 of each entry?
Answers are plain numbers, as −log10 of the molar value.

>  <chemicalSmiles>
Cn1c(Nc2c(Cl)ccc(CNC(=O)C(C)(C)C)c2Cl)nc2cc(C(=O)N[C@H]3CC[C@H](C(F)(F)F)CC3)c(N3C4CCC3CC4)cc21

>  <readoutValue>
8.70

$$$$
>  <chemicalSmiles>
CC(C)(C)C(=O)NCc1ccc(Cl)c(Nc2nc3cc(C(=O)NCC(F)(F)F)c(N4CCC(F)CC4)cc3[nH]2)c1Cl

>  <readoutValue>
8.52

$$$$
>  <chemicalSmiles>
CN(CCC(F)(F)F)c1cc2c(cc1C(=O)NCC(F)(F)F)nc(Nc1c(Cl)ccc(CNC(=O)C(C)(C)C)c1Cl)n2C

>  <readoutValue>
8.52

$$$$
>  <chemicalSmiles>
Cn1c(Nc2c(Cl)ccc(CNC(=O)c3cccc(O)c3)c2Cl)nc2cc(C(=O)NCCC(F)(F)F)c(N3CCC(C(F)(F)F)CC3)cc21

>  <readoutValue>
8.30

$$$$
>  <chemicalSmiles>
CN(c1ccc(F)c(Cl)c1)c1cc2c(cc1C(=O)NCC(F)(F)F)nc(Nc1c(Cl)ccc(CNC(=O)C(C)(C)C)c1Cl)n2C

>  <readoutValue>
8.40

$$$$

Provide value of pIC50 for this record tested with recombinant human mPGES-1 (Homo sapiens (Human), UniProt O14684): `Cn1c(Nc2c(Cl)ccc(CNC(=O)C(C)(C)C)c2Cl)nc2cc(C(=O)Nc3ccc(OC(F)(F)F)cc3)c(N3CCOCC3)cc21`
8.70

Sourced from patent US8674113B2
